# Tested on: 521955-158-R2-J5-PDC complex spheroid growth, % test/control;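 further: spheroids exposed to agents for 7 days before readout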
# assay: Anticancer human tumor 521955-158-R2-J5-PDC patient-derived pancreatic carcinoma cell line growth inhibition [Asc]; active means viability on the fitted dose curve at most 10% of control; inactive means the rest
# condition.label: second compound 0.0949 µM; first compound 10 µM
Reply using exactly one outcome from active, inactive

State the result this test recorded for O=C(c1cc(Cc2n[nH]c(=O)c3ccccc23)ccc1F)N1CCN(C(=O)C2CC2)CC1 + CCN1C(C(=O)NC23CCC(C(=O)O)(CC2)CC3)C(c2cccc(Cl)c2F)C2(C(=O)Nc3cc(Cl)ccc32)C12CCCCC2 .
inactive

State the result this test recorded for C=C(F)C(=O)N1CCN(c2nc(OCC3CCCN3C)nc3c2CCN(c2cccc4cccc(Cl)c24)C3)CC1CC#N (centres undefined) + CCN1C(C(=O)NC23CCC(C(=O)O)(CC2)CC3)C(c2cccc(Cl)c2F)C2(C(=O)Nc3cc(Cl)ccc32)C12CCCCC2 .
active

State the result this test recorded for C=CC(=O)N1CCN(c2nc(=O)n(-c3c(C)ccnc3C(C)C)c3nc(-c4c(O)cccc4F)c(F)cc23)C(C)C1 (centres undefined) + CCN1C(C(=O)NC23CCC(C(=O)O)(CC2)CC3)C(c2cccc(Cl)c2F)C2(C(=O)Nc3cc(Cl)ccc32)C12CCCCC2 .
inactive

State the result this test recorded for C#Cc1c(F)ccc2cc(O)cc(-c3ncc4c(N5CC6CCC(C5)N6)nc(OCC56CCCN5CC(F)C6)nc4c3F)c12 (centres undefined) + CCN1C(C(=O)NC23CCC(C(=O)O)(CC2)CC3)C(c2cccc(Cl)c2F)C2(C(=O)Nc3cc(Cl)ccc32)C12CCCCC2 .
inactive
